# Test system: A/Hessen/1/2003 (H3N2)
# Format: cell-based, influenza virus
# Viability of infected cells relative to aprotinin, Replicate 2 values compiled below
// no unit string in output, number only

Look over these answered cases.
item_sequence: GSLLGLLDVVKSKVGQTGLL [LS-AMP-A19]
study_system: A/Hessen/1/2003 (H3N2)
numeric_value: 0.1267

item_sequence: SLLGLLDVVKSKVGQTGLL [LS-AMP-A18]
study_system: A/Hessen/1/2003 (H3N2)
numeric_value: 0.1378

item_sequence: SLLGLLDVVKNKVGQIG [LS-AMP-A4]
study_system: A/Hessen/1/2003 (H3N2)
numeric_value: 0.06953

// returns reported Viability of infected cells relative to aprotinin, Replicate 2 for input SLLGLLDVVKSKIGQTG [LS-AMP-A14]
0.146

Next sequence: SLLGLLDVVKNKVGQIGLL [LS-AMP-A3]
0.01008

Also need SLFGLLDLVKSKVGQTGLL [LS-AMP-A1] , thanks.
0.1781

Try this sequence next: LLDVVKSKIGQTGLL [LS-AMP-A16]
0.05366

Ok, now SLLGLLDVVKNTVGQTG [LS-AMP-A9]
0.2232

====

# System: Staphylococcus aureus DSM 2569
# assay_notes: Antibacterial growth assay (OD600)
# reported_conditions: S. aureus DSM 2569, growth after 48 h

item_sequence: SLLGLLDVVKSKIGQTGLL [LS-AMP-A13]
Antibacterial activity (in words): limited activity
--
item_sequence: SLLGLLDVVKSKIGQT [LS-AMP-A15]
Antibacterial activity (in words): limited activity

====

Listing of entries alongside the reported Bacterial growth relative to medium, P. aeruginosa (50071), replicate 3.
# Tested on: Pseudomonas aeruginosa DSM 50071
# assay_notes: Antibacterial growth assay (OD600)
# reported_conditions: OD600, medium = 100, MH II broth, 37 °C, peptide 200 µM mixed 50 µL + 50 µL with bacteria; Figure 7: 48 h; replicate column 3

Reference set, count: 5
item_sequence: SLFGLLDLVKNKVGQTGLL [LS-AMP-A2]
result: 87.799
--
item_sequence: GSLLGLLDVVKSKVGQTGLL [LS-AMP-A19]
result: 85.194
--
item_sequence: SLLGLLDVVKNKVGQIGLL [LS-AMP-A3]
result: 88.8092
--
item_sequence: SLLGLLDVVKSKIGQT [LS-AMP-A15]
result: 84.6093
--
item_sequence: DVVKSKVGQT [LS-AMP-A20]
result: 86.151

Fill in the blank: the reported Bacterial growth relative to medium, P. aeruginosa (50071), replicate 3 of SLLGLLDVVKSKVGQTGLL [LS-AMP-A18] is ____.
87.0813

Now this one: SLLGLLDVVKNTVGQT [LS-AMP-A10]
83.9978

// next record SLLGLLDVVKSKIGQTGLL [LS-AMP-A13]
93.6736

Can you check SLLGLLDVVKNTVGQTGLL [LS-AMP-A8] next?
91.0686

Also check SLLGLLDVVKNKVGQI [LS-AMP-A5]
85.8852

And then SLLGLLDVVKSKIGQTG [LS-AMP-A14] , what is it?
81.6852

Would you mind doing SLLGLLDVVKNTVGQTG [LS-AMP-A9] as well?
87.613

And what about the sequence SLFGLLDLVKSKVGQTGLL [LS-AMP-A1] ?
89.7927

Lookup LLDVVKSKIGQTGLL [LS-AMP-A16]
72.2488

Cool, now SLLGLLDVVKNKVGQIG [LS-AMP-A4]
86.4168

And the next one, SLLGLLDVVKNTVGQ [LS-AMP-A11] ?
88.0117

====

# Test system: Staphylococcus aureus DSM 2569
# assay_notes: Antibacterial growth assay (OD600)
# reported_conditions: OD600, medium = 100, MH II broth, 37 °C, peptide 200 µM mixed 50 µL + 50 µL with bacteria; Figure 7: 48 h; replicate column 2
Short version: Bacterial growth relative to medium, S. aureus, replicate 2 at least 70 is yes, less is no.

# example entries with known answers
item_sequence: SLFGLLDLVKSKVGQTGLL [LS-AMP-A1]
category_label: yes

item_sequence: SLLGLLDVVKNTVGQTG [LS-AMP-A9]
category_label: no

item_sequence: SLLGLLDVVKSKIGQTG [LS-AMP-A14]
category_label: yes

item_sequence: SLLGLLDVVKSKVGQTGLL [LS-AMP-A18]
category_label: no

item_sequence: SLLGLLDVVKNKVGQIGLL [LS-AMP-A3]
category_label: yes

Is Bacterial growth relative to medium, S. aureus, replicate 2 at least 70? Consider LLDVVKSKIGQTGLL [LS-AMP-A16]
yes

And what about the sequence SLLGLLDVVKNTVGQTGLL [LS-AMP-A8] ?
yes

Please do the same for SLLGLLDVVKNTVGQT [LS-AMP-A10] as well.
no

Next sequence: SLLGLLDVVKNTVGQ [LS-AMP-A11]
no

Another sequence: SLFGLLDLVKNKVGQTGLL [LS-AMP-A2]
yes

====

# Tested on: panel of seven bacterial strains
# assay_notes: Antibacterial growth assay (OD600), statements on the whole panel
# Assay type: cell-based
# reported_conditions: growth after 48 h
readout_type: Antibacterial activity over the panel (in words)

Record excerpt, results attached:
item_sequence: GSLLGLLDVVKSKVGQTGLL [LS-AMP-A19]
result: largely inactive
//
item_sequence: SLLGLLDVVKSKVGQTGLL [LS-AMP-A18]
result: largely inactive
//
item_sequence: SLFGLLDLVKNKVGQTGLL [LS-AMP-A2]
result: limited activity
//
item_sequence: SLFGLLDLVKSKVGQTGLL [LS-AMP-A1]
result: limited activity

What measured Antibacterial activity over the panel (in words) goes with SLLGLLDVVKNKVGQIGLL [LS-AMP-A3] ?
limited activity

====

# Test system: Staphylococcus epidermidis DSM 28319
# assay_notes: Antibacterial growth assay (OD600)
# reported_conditions: OD600, medium = 100, MH II broth, 37 °C, peptide 200 µM mixed 50 µL + 50 µL with bacteria; Figure 7: 48 h; replicate column 3
Just a reminder that ties go to condition not met: only Bacterial growth relative to medium, S. epidermidis, replicate 3 strictly below 80 counts as condition met.

Consider the following illustrative entries.
item_sequence: SLLGLLDVVKNTVGQ [LS-AMP-A11]
study_system: Staphylococcus epidermidis DSM 28319
category_label: condition met
//
item_sequence: SLLGLLDVVKSKIGQTGLL [LS-AMP-A13]
study_system: Staphylococcus epidermidis DSM 28319
category_label: condition not met

Decide: Bacterial growth relative to medium, S. epidermidis, replicate 3 of DVVKSKVGQT [LS-AMP-A20] strictly below 80?
condition not met

====

# System: Micrococcus luteus DSM 20030
# assay_notes: Antibacterial growth assay (OD600)
# reported_conditions: OD600, medium = 100, MH II broth, 37 °C, peptide 200 µM mixed 50 µL + 50 µL with bacteria; Figure 7: 48 h; replicate column 1
Entries and their measured Bacterial growth relative to medium, M. luteus, replicate 1 follow.
Please give only the number in your answer, with no unit.

Answered cases to consult:
item_sequence: SLLGLLDVVKNKVGQIGLL [LS-AMP-A3]
numeric_value: 106.28
//
item_sequence: SLFGLLDLVKSKVGQTGLL [LS-AMP-A1]
numeric_value: 73.9935
//
item_sequence: SLLGLLDVVKSKIGQTG [LS-AMP-A14]
numeric_value: 101.208
//
item_sequence: SLLGLLDVVKSKVGQTGLL [LS-AMP-A18]
numeric_value: 143.237
//
item_sequence: SLLGLLDVVKNKVGQI [LS-AMP-A5]
numeric_value: 73.1884

Can you look up Bacterial growth relative to medium, M. luteus, replicate 1 on Micrococcus luteus DSM 20030 for SLFGLLDLVKNKVGQTGLL [LS-AMP-A2] ?
118.679

Now try LLDVVKSKIGQTGLL [LS-AMP-A16] .
57.3268

And then SLLGLLDVVKNTVGQT [LS-AMP-A10] , what is it?
61.1915

Check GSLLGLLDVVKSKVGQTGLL [LS-AMP-A19] too.
38.8889

What do you get for SLLGLLDVVKSKIGQTGLL [LS-AMP-A13] ?
108.132

Field entry: SLLGLLDVVKNTVGQTG [LS-AMP-A9]
52.4959

Also SLLGLLDVVKNTVGQTGLL [LS-AMP-A8] , if possible.
72.2222

Now try SLLGLLDVVKSKIGQT [LS-AMP-A15] .
87.1981

SLLGLLDVVKNKVGQIG [LS-AMP-A4] ?
48.8727

Check SLLGLLDVVKNTVGQ [LS-AMP-A11] too.
56.0386

Item: DVVKSKVGQT [LS-AMP-A20]
84.9437
